# assay_system: GLP-1 receptor
# assay_comment: cell-based or functional assay
Where no end group is shown, it is not given here.
Hi there, I'd appreciate the recorded GLP-1 receptor activation relative to Val^8-GLP-1(7-37)OH for every entry that follows.

# input Field request: GLP-1 receptor activation relative to Val^8-GLP-1(7-37)OH | item: HVEGTFTSDVSSYLEEQAAKIFIAWLVKGRG-OH [Val^8-Glu^22-Ile^27-GLP-1(7-37)OH]
# output 2 fold of Val^8-GLP-1(7-37)OH

# input // same read-out, input: HVEGTFTSDVSSYLEEQALKEFIAWLVKGRG-OH [Val^8-Glu^22-Leu^25-GLP-1(7-37)OH]
# output 2.8 fold of Val^8-GLP-1(7-37)OH

# input Queued: HVEGTFTSDFSSYLEEQAAKEFIAWLVKGRG-OH [Val^8-Phe^16-Glu^22-GLP-1(7-37)OH]
# output 2.3 fold of Val^8-GLP-1(7-37)OH

# input For HVEGTFTSDWSSYLEEQAVKEFIAWLVKGRG-OH [Val^8-Trp^16-Glu^22-Val^25-GLP-1(7-37)OH] then?
# output 4.4 fold of Val^8-GLP-1(7-37)OH

# input And HVEGTFTSDYSSWLEEQAAKEFIAWLVKGRG-OH [Val^8-Tyr^16-Trp^19-Glu^22-GLP-1(7-37)OH] ?
# output 3.5 fold of Val^8-GLP-1(7-37)OH

# input Do the same for HVEGTFTSDWSSYLEEQAAKEFIAWLIKGRG-OH [Val^8-Trp^16-Glu^22-Ile^33-GLP-1(7-37)OH] please
# output 4.1 fold of Val^8-GLP-1(7-37)OH
